Origin of the recorded values: ChEMBL document CHEMBL4706527

- Tested target: Insulin-like growth factor 1 receptor (Homo sapiens, UniProt P08069)
- Sequence (P08069 31-736 limits assumed): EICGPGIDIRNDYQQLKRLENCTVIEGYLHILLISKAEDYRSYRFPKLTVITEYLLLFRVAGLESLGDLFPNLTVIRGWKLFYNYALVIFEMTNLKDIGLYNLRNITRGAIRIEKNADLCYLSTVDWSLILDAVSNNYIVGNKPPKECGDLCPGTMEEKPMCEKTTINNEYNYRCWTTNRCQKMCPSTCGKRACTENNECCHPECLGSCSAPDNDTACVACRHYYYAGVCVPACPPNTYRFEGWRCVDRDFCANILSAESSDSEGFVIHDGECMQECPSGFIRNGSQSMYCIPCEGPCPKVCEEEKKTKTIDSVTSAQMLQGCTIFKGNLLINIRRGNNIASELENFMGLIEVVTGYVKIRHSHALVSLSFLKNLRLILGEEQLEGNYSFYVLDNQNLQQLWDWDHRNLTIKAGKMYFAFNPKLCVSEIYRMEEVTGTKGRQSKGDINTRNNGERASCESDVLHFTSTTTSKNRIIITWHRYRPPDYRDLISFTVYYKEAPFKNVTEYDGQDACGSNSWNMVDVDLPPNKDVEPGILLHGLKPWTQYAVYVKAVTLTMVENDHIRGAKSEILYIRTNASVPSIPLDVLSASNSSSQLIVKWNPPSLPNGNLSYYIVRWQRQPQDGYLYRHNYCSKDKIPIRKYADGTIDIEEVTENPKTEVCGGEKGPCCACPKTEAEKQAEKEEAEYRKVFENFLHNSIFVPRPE
- Sequence (P08069 741-1367 limits assumed): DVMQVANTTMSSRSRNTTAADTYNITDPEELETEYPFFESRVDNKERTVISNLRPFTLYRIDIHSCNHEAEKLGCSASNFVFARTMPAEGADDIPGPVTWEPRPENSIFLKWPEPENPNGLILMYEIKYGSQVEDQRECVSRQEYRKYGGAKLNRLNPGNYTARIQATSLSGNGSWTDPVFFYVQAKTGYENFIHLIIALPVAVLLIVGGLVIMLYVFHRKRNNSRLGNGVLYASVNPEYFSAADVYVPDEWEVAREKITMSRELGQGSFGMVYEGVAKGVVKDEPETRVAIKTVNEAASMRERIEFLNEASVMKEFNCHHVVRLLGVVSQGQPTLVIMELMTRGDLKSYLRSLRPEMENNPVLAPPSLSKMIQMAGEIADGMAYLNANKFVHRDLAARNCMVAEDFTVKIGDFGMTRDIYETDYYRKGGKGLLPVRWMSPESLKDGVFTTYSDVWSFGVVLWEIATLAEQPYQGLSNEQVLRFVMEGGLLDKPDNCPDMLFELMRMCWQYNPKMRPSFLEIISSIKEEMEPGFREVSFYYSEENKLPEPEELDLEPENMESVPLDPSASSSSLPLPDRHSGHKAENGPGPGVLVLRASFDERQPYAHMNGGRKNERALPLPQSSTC
Measure: IC50

molecule="COc1cc2c(Oc3ccc(NC(=O)NN4C(=O)CSC4c4c(F)cccc4F)cc3)ccnc2cc1OC1CCN(C(=O)NC(C)C)CC1 (stereo unspecified)" measure=IC50 result="> 10 µM"

---

- Tested target: UniProtKB P08581
- Sequence (P08581 whole entry): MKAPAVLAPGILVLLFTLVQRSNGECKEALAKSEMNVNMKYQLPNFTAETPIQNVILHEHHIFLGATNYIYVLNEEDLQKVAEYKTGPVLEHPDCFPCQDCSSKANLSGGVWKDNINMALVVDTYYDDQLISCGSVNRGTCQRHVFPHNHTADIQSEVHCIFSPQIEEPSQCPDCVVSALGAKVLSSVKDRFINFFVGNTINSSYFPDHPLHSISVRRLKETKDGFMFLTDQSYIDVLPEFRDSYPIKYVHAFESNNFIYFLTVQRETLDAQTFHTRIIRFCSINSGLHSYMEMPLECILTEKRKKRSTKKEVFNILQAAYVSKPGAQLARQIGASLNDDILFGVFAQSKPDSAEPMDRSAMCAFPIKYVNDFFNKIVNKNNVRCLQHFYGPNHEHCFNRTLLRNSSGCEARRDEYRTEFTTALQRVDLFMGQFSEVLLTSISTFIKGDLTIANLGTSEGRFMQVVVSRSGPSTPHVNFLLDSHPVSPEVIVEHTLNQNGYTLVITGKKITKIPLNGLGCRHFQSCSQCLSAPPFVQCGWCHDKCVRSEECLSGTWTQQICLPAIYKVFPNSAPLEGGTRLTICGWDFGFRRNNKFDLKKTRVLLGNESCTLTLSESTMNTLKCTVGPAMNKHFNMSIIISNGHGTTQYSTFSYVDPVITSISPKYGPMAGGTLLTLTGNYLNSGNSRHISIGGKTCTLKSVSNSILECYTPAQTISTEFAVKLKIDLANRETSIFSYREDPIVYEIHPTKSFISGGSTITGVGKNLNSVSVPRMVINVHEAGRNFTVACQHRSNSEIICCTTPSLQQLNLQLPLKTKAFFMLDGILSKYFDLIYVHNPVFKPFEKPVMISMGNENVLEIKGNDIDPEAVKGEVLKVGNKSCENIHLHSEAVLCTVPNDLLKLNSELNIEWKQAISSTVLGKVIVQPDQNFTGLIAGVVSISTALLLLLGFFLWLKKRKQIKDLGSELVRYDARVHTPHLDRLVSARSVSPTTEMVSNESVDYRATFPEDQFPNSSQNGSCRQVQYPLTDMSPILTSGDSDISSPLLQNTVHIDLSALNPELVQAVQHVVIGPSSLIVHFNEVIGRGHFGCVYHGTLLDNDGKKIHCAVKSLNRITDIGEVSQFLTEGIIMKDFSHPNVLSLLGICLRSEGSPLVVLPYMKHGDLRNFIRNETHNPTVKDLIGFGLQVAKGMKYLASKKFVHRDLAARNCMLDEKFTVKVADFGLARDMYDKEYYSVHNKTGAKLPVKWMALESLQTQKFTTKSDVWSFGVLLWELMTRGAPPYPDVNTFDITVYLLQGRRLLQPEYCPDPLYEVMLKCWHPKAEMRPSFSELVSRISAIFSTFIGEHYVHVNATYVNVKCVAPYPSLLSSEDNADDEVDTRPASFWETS
- Experimental protocol: Inhibition of c-Met (unknown origin) using FAM-labelled peptide and ATP incubated for 10 mins by mobility shift assay
Measure: IC50 (nM)

molecule="COc1cc2c(Oc3ccc(NC(=O)NN4C(=O)CSC4c4c(F)cccc4F)cc3)ccnc2cc1OC1CCN(C(=O)NC(C)C)CC1 (stereo unspecified)" measure=IC50 quantitative_readout=382

---

- Tested target: Serine/threonine-protein kinase B-raf (Homo sapiens)
- Sequence (P15056 whole entry): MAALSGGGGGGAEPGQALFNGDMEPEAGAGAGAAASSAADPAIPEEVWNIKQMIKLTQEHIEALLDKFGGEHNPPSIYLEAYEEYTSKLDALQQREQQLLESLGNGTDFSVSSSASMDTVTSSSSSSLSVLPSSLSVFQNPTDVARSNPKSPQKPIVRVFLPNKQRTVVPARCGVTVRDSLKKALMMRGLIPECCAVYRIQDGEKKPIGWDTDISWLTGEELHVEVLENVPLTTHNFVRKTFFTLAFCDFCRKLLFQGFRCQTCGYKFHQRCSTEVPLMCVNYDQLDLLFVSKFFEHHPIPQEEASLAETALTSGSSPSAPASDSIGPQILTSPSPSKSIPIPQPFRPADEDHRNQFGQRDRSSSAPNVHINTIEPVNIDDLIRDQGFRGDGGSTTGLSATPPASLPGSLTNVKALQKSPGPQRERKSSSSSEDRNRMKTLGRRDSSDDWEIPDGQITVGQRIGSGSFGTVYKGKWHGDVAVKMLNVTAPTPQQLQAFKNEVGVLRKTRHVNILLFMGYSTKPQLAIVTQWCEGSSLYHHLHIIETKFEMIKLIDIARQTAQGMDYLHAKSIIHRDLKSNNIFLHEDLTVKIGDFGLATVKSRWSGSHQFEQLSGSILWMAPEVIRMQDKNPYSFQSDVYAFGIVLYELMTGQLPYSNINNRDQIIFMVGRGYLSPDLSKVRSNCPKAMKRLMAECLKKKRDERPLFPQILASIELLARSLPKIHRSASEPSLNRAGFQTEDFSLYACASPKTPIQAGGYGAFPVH
pIC50: −log10 of the molar value.
Measure: pIC50

compound="COc1cc2c(Oc3ccc(NC(=O)NN4C(=O)CSC4c4c(F)cccc4F)cc3)ccnc2cc1OC1CCN(C(=O)NC(C)C)CC1 (stereo unspecified)" measure=pIC50 result="< 5.00"

---

- Tested target: Mast/stem cell growth factor receptor Kit (Homo sapiens)
- Sequence (P10721 whole entry): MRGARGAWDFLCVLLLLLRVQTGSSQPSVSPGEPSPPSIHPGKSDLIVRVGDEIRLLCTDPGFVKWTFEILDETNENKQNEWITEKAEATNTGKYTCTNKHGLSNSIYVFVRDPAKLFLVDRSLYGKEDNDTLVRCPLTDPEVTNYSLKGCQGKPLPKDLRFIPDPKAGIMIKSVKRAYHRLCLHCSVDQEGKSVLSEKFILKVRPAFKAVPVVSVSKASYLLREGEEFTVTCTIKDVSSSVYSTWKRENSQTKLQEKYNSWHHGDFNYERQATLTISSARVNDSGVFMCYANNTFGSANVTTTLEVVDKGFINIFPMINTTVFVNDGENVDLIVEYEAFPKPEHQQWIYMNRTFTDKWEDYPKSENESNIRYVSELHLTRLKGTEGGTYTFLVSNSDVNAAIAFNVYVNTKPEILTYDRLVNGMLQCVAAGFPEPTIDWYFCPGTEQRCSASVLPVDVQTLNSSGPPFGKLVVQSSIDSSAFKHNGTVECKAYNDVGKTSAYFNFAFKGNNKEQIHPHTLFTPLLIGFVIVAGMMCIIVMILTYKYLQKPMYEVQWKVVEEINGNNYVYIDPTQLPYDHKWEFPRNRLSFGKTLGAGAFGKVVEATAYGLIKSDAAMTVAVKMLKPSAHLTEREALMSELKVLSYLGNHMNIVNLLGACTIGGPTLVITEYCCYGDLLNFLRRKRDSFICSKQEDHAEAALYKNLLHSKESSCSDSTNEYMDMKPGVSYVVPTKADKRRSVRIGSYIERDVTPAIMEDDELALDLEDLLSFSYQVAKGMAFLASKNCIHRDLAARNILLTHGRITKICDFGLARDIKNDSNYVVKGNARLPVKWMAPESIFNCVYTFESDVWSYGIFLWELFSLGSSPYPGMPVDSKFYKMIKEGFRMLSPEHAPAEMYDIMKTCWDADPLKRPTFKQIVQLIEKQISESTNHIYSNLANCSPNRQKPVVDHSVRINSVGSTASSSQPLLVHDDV
Measure: IC50

compound="COc1cc2c(Oc3ccc(NC(=O)NN4C(=O)CSC4c4c(F)cccc4F)cc3)ccnc2cc1OC1CCN(C(=O)NC(C)C)CC1 (stereo unspecified)" tested_target="Mast/stem cell growth factor receptor Kit (Homo sapiens)" measure=IC50 result="> 10 µM"

---

- Tested target: Tyrosine-protein kinase receptor UFO (Homo sapiens, UniProt P30530)
- Sequence (P30530 whole entry): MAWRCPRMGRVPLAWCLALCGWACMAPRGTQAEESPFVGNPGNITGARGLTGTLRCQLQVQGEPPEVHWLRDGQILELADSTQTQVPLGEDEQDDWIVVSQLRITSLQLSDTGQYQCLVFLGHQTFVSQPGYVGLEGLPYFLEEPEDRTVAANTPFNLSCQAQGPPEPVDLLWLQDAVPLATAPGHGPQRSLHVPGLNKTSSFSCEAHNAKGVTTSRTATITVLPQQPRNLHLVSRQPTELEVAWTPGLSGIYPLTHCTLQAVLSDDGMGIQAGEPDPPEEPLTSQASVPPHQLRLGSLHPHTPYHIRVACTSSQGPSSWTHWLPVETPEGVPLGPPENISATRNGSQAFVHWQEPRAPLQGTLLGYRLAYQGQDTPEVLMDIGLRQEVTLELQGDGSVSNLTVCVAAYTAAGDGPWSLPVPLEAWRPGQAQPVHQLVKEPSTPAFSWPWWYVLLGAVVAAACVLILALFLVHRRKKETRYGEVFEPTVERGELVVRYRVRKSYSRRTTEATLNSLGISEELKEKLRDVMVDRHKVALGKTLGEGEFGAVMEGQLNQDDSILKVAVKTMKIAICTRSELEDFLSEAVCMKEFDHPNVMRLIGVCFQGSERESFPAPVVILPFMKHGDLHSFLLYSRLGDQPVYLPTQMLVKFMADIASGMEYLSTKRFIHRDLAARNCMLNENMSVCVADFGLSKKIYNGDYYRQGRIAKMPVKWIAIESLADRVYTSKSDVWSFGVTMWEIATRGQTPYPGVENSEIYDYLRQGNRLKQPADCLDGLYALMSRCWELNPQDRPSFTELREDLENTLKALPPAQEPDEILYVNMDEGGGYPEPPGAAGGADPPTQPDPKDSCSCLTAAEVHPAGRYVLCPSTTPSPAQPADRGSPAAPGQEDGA
Measure: IC50

molecule="COc1cc2c(Oc3ccc(NC(=O)NN4C(=O)CSC4c4c(F)cccc4F)cc3)ccnc2cc1OC1CCN(C(=O)NC(C)C)CC1 (stereo unspecified)" tested_target="Tyrosine-protein kinase receptor UFO (Homo sapiens, UniProt P30530)" result="632 nM"

---

- Tested on: HT-29
- Experimental protocol: cells
- Condition label: Homo sapiens
Collected IC50 values appear next to each entry.
Measure: IC50 (nM)

compound=CNC(=O)c1cc(Oc2ccc(NC(=O)Nc3ccc(Cl)c(C(F)(F)F)c3)c(F)c2)ccn1 inequality_symbol== quantitative_readout=2870
compound="COc1cc2c(Oc3ccc(NC(=O)NN4C(=O)CSC4c4cccc(F)c4)cc3)ccnc2cc1OC1CCN(C(=O)NC(C)C)CC1 (configuration not stated)" inequality_symbol== quantitative_readout=670
compound="COc1cc2c(Oc3ccc(NC(=O)NN4C(=O)CSC4c4ccc(F)c(F)c4)cc3)ccnc2cc1OC1CCN(C(=O)NC(C)C)CC1 (configuration not stated)" inequality_symbol== quantitative_readout=1060
compound="COc1cc2c(Oc3ccc(NC(=O)NN4C(=O)CSC4c4c(F)cccc4F)cc3)ccnc2cc1OC1CCN(C(=O)NC(C)C)CC1 (configuration not stated)" inequality_symbol== quantitative_readout=310
compound="CCNC(=O)N1CCC(Oc2cc3nccc(Oc4ccc(NC(=O)NN5C(=O)CSC5c5ccc(F)cc5)cc4)c3cc2OC)CC1 (configuration not stated)" inequality_symbol== quantitative_readout=2250
compound="CCCCNC(=O)N1CCC(Oc2cc3nccc(Oc4ccc(NC(=O)NN5C(=O)CSC5c5ccc(F)cc5)cc4)c3cc2OC)CC1 (configuration not stated)" inequality_symbol== quantitative_readout=1700
compound="COc1cc2c(Oc3cccc(NC(=O)NN4C(=O)CSC4c4c(F)cccc4F)c3)ccnc2cc1OC1CCN(C(=O)NC(C)C)CC1 (configuration not stated)" inequality_symbol=> quantitative_readout=10000
